# measured-on: Tlp3^LBD D170A (Campylobacter jejuni)
# Sequence (Q0P864 41-290 T170A): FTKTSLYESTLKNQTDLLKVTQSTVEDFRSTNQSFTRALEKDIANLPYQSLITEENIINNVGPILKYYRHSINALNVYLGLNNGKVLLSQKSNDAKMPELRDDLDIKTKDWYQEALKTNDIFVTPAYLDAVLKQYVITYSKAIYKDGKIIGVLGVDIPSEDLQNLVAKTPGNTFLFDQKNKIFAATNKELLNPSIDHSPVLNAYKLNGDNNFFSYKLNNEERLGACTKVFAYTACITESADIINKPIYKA
# assay-details: biochemical
property-label: Kd (µM)
Express your answer in µM, writing the number without its unit.

Supply reported Kd belonging to this compound: c1ncc2nc[nH]c2n1 [Purine] 20.6

Supply reported Kd belonging to this compound: N[C@H]1C(O)O[C@H](CO)[C@@H](O)[C@@H]1O (stereo partly drawn) [Glucosamine] 39.7

Supply reported Kd belonging to this compound: C[C@H](O)[C@@H](O)[C@@H](O)[C@H](O)C=O [Fucose] 46.6

Supply reported Kd belonging to this compound: Cc1ncc(C[n+]2csc(CCO)c2C)c(N)n1 [Thiamine] 30.6

Supply reported Kd belonging to this compound: CC(=O)N[C@H]1[C@H]([C@H](O)[C@H](O)CO)OC(O)(C(=O)O)C[C@@H]1O (stereo partly drawn) [Sialic acid] 16.6

Supply reported Kd belonging to this compound: NCCCC[C@H](N)C(=O)O [Lysine] 14.5

----------
# measured-on: UniProt:Q0P864
# assay-details: Glycan/small molecule arrays with Tlp3
# condition-parameters: yes/no binding
property-label: binding to Tlp3 on glycan/small molecule array

Example cases with answers are listed next.
NCCCC[C@H](N)C(=O)O
bind specifically
CC(=O)N[C@H]1[C@H]([C@H](O)[C@H](O)CO)OC(O)(C(=O)O)C[C@@H]1O (some centres unmarked)
interacted
C[C@H](O)[C@@H](O)[C@@H](O)[C@H](O)C=O
interacted
OC[C@H]1OC(O)[C@@H](O)[C@@H](O)[C@@H]1O (some centres unmarked)
interacted
N[C@@H](CC(=O)O)C(=O)O [Aspartate]
bind specifically

Supply reported binding to Tlp3 on glycan/small molecule array belonging to this compound: `O=C[C@H](O)[C@@H](O)[C@@H](O)[C@H](O)CO` interacted

Supply reported binding to Tlp3 on glycan/small molecule array belonging to this compound: `c1ncc2nc[nH]c2n1` bind specifically

Supply reported binding to Tlp3 on glycan/small molecule array belonging to this compound: OC[C@H]1OC(O)[C@H](O)[C@@H](O)[C@@H]1O (some centres unmarked) interacted

----------
Answer each item with its documented pKd.
# measured-on: Tlp2 (Campylobacter jejuni, UniProt Q0PBZ3)
# Sequence (Q0PBZ3 entry or part of it): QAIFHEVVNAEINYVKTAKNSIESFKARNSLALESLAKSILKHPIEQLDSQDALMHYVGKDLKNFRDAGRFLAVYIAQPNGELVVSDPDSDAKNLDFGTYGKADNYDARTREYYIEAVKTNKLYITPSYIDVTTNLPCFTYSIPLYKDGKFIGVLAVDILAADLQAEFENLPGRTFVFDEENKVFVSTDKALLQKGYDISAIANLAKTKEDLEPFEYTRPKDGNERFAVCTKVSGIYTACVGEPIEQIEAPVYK
# assay-details: biochemical
# Assay type: binding
# condition-parameters: read-out: Tlp2 Affinity
pKd: −log10 of the molar value.

Supply reported pKd belonging to this compound: `N=C(N)NCCC[C@H](N)C(=O)O` < 3.70

Supply reported pKd belonging to this compound: `Cc1ncc(C[n+]2csc(CCO)c2C)c(N)n1` < 3.70

----------
# measured-on: Tlp4 (Campylobacter jejuni)
# Sequence (Q0PBP3 entry or part of it): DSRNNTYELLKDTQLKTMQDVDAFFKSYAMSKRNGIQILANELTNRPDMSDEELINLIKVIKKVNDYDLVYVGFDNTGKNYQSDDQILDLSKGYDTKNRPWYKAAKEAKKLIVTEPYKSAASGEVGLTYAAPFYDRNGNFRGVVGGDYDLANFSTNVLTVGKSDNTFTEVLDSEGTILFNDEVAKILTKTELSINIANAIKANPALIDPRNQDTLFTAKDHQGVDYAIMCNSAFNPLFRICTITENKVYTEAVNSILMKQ
# assay-details: biochemical
# Assay type: binding
# condition-parameters: SPR KD, mean ± SD; NB = no binding; read-out: Tlp4 Affinity
property-label: pKd
In plain terms, pKd is the concentration in mol/L turned into minus its base-10 logarithm.

Supply reported pKd belonging to this molecule: OC[C@H]1OC(O)[C@@H](O)[C@@H](O)[C@@H]1O (stereo partly drawn) [Mannose] 5.11

Supply reported pKd belonging to this molecule: N[C@@H](CS)C(=O)O [Cysteine] 5.24

Supply reported pKd belonging to this molecule: OC[C@H]1OC(O)[C@H](O)[C@@H](O)[C@@H]1O (stereo partly drawn) [Glucose] 4.74

Supply reported pKd belonging to this molecule: C[C@H](O)[C@@H](O)[C@@H](O)[C@H](O)C=O [Fucose] 4.79

Supply reported pKd belonging to this molecule: c1ncc2nc[nH]c2n1 [Purine] 5.92
